# system: Fatty acid-binding protein, adipocyte (Homo sapiens)
# Sequence (P15090 whole entry): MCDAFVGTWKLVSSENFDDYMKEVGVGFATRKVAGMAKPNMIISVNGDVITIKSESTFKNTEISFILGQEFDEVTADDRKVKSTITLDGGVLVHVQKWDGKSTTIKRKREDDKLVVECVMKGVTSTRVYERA
metric: IC50

input: Value lookup for IC50; key = O=S(=O)(c1ccccc1-c1cccc(O)c1)N1CCN(S(=O)(=O)c2cccc3cccnc23)CC1
output: > 80 µM

###

# system: Fatty acid-binding protein, liver (Homo sapiens)
# assay-overview: Inhibition of human FABP1 at 9 uM incubated for 3 mins by fluorescence based analysis relative to control
metric: inhibition (%)
Entry rule: numbers only, all in %.

Check out these entries, answers already filled in.
O=C(C1CCCN(S(=O)(=O)c2cccc3cccnc23)C1)N1CCNCC1 (stereo not given) : 11.5
CSCCC(NS(=O)(=O)c1cccc2cccnc12)C(=O)O (stereo not given) : 20.9
O=C(O)C[C@H](NC(=O)c1ccc(NS(=O)(=O)c2cccc3cccnc23)cc1)C(=O)O : 13.1
O=S(=O)(c1ccccc1-c1cccc(O)c1)N1CCN(S(=O)(=O)c2cccc3cccnc23)CC1 : 78.1
O=C(O)CNS(=O)(=O)c1cccc2cccnc12 : 4.26
O=C(O)C1(C(=O)N2CCN(S(=O)(=O)c3cccc4cccnc34)CC2)CC1 : 30.5
O=S(=O)(c1ccccc1-c1ccc(F)cc1)N1CCN(S(=O)(=O)c2cccc3cccnc23)CC1 : 52.7
CC1CN(S(=O)(=O)c2cccc3cccnc23)CCN1C(=O)CC(=O)O (stereo not given) : 20.3
O=C(c1ccc(NS(=O)(=O)c2cccc3cccnc23)cc1)N1CCN(C(=O)C2(C(=O)O)CC2)CC1 : 29.9

Now for the molecule whose inhibition we want.
input: Find the measured inhibition: item O=C(O)CCC(NC(=O)C1CCCN(S(=O)(=O)c2cccc3cccnc23)C1)C(=O)O (stereo not given) , target or system Fatty acid-binding protein, liver (Homo sapiens).
output: 10.3
